Test system: IGROV1 ovarian
Test: NCI-60 one-dose screen, 48 h (100 = growth as untreated, 0 = no growth, -100 = all killed)
Details: 10 µM unless noted
About 83,000 compounds went through this panel and 20% of them were active in at least one assay; those are over-represented in the sample as a whole. Active and inactive are the calls of the source. How the source made its calls: active means growth percent below 10; inactive means the rest.
Field: growth. Provide a value for each of the compounds that follow.

Sample answers from the record:
{"COMPOUND": "O=C(NCc1ccccc1)C(Cl)Cl", "VAL": "101% (inactive)"}
{"COMPOUND": "C=C1C(=O)O[C@H]2[C@H]1CC/C(COC(=O)NCc1ccc(Cn3c(=O)sn(-c4ccc(Cl)cc4)c3=O)cc1)=C\\CC[C@@]1(C)O[C@@H]21", "VAL": "54.4% (inactive)"}
{"COMPOUND": "CC(C)[C@H]1CCC2=C3CC[C@]45OC(=O)[C@@]6(CCC(C)(C)C[C@H]64)CC[C@@]5(C)[C@]3(C)CC[C@@]21C", "VAL": "61% [100 µM] (inactive)"}

Here's the next entry for you.
growth measured on CCOC(=O)n1cc(C2=C(c3ccc(OC)c(OC)c3)COC2=O)c2ccccc21 = 18.2% (inactive)

---

System: 786-0 renal
Test: NCI-60 one-dose screen, 48 h (100 = growth as untreated, 0 = no growth, -100 = all killed)
Conditions: 10 µM unless noted
The panel holds about 83,000 compounds, 20% with a hit somewhere; the sample as a whole holds those more often.
PARAMETER: growth (%)
One number for each entry, in %.

{"MOLECULE": "CC1Cc2c(ncnc2-n2cnc3ccccc32)N(C)c2ccccc21 (stereo not given)", "growth / %": 39.2}
{"MOLECULE": "CCOC(=O)CCC[P+](c1ccccc1)(c1ccccc1)c1ccccc1", "growth / %": 101}
{"MOLECULE": "Cc1cc(C)c(-c2cc(O)c(-c3c(C)cc(C)cc3C)cc2O)c(C)c1", "growth / %": 30.4}

For every item below, please supply its growth.
1. CCN(CC)c1ccc(/C=C/C=C2\NC(=O)NC2=O)cc1
2. Brc1ccc2c(c1)CN(C1CCCCC1)CO2
3. c1cc2ccc3cc2cc1CNCCN1CCNCc2ccc4ccc(cc4c2)CNCCN(CCNC3)CCNCc2ccc3ccc(cc3c2)CNCC1

Output:
[9.14, 117, 89.7]

// input: 4 molecules below; output: growth for each
1. O=C(CCN1CCCCC1)c1ccc2ccccc2c1
2. CN(Cc1cccc(C(F)(F)F)c1)C(=O)[C@@H](CC(=O)N1CCC(N2CCCCC2)CC1)N1C(=O)[C@@H](N2C(=O)OC[C@@H]2c2ccccc2)[C@H]1/C=C/c1ccccc1
3. CSc1nc(N)c(N=Nc2ccc(S(=O)(=O)Nc3nnc(C)s3)cc2)c(=O)[nH]1
4. CCCCNC(=O)NS(=O)(=O)Cc1ccccc1

Output:
[111, 75.4, 114, 99]

---

Test system: SK-OV-3 ovarian
Experiment: NCI-60 one-dose screen, 48 h
Conditions: 10 µM unless noted
About 83,000 compounds went through this panel and 20% of them were active in at least one assay; those are over-represented in the sample as a whole. Calls of active or inactive are those of the source. Rule for the calls: active = growth percent below 10; inactive = the rest.
// one of yes (1) (active), no (0) (inactive), no free text

Before answering, review these 4 worked examples.
{"COMPOUND": "O=C(Nc1ccc(Oc2ccc(F)cc2)c(Cl)c1)c1cnccn1", "CLASS_ASSIGNMENT": "no (0)"}
{"COMPOUND": "CCOC(=O)C(=Cc1ccccc1[N+](=O)[O-])C(=O)OCC", "CLASS_ASSIGNMENT": "no (0)"}
{"COMPOUND": "C=C(C)[C@@H]1CC[C@]2(COCCCN)CC[C@]3(C)[C@H](CC[C@@H]4[C@@](C)(CCCNCCCN)[C@H](C(=C)C)CC[C@]43C)[C@@H]12", "CLASS_ASSIGNMENT": "yes (1)"}
{"COMPOUND": "Nc1nc(Nc2ccccc2)c2ncn(Cc3ccc4c(c3)OCO4)c2n1", "CLASS_ASSIGNMENT": "no (0)"}

# evaluate next
Task: So what was the verdict on Cc1cc(C)c(O)c(CNCCCNCc2cc(C)cc(C)c2O)c1 in this test?
Output: no (0)

---

Test system: SF-539 CNS
Experiment: NCI-60 one-dose screen, 48 h (100 = growth as untreated, 0 = no growth, -100 = all killed)
Settings: 10 µM unless noted
This is part of a sample that, as a whole, favours compounds with a hit. Of some 83,000 tested, about 20% had one in any assay. Activity calls are given as the source filed them. The calls were made as follows: active = growth percent below 10; inactive = the rest.
Assignment: determine reported growth for the given compounds.

Worked cases, growth given:
{"COMPOUND": "CN(C)c1ccc(N=Nc2ccc3ccccc3c2)cc1", "growth": "93% (inactive)"}
{"COMPOUND": "O=C(OCc1ccc2c(Cl)cc(Cl)c(O)c2n1)N1CCN(C(=O)c2cc3cc(F)ccc3[nH]2)CC1", "growth": "-20.1% (active)"}
{"COMPOUND": "N#CCCc1c[nH]c2ccccc12", "growth": "95.9% (inactive)"}
{"COMPOUND": "COc1ncc(-c2ccc3nccc(C#CCCCCC(=O)O)c3c2)cc1NS(=O)(=O)c1ccc(F)cc1F", "growth": "-9.14% (active)"}
{"COMPOUND": "C=C(C)C1CCC2(C(=O)O)CCC3(C)C(CCC4C5(C)CCC(OC(=O)NCc6ccccc6)C(C)(C)C5CCC43C)C12 (stereo not given)", "growth": "53.5% (inactive)"}
{"COMPOUND": "c1ccc(-c2nnc(-c3c[nH]c4ncccc34)s2)cc1", "growth": "96.9% (inactive)"}

Below are 3 compounds. Give each one its growth.
1. CC1=C/C(=C(\c2cc(C)c(O)c(C(=O)O)c2)c2c(Cl)cccc2Cl)C=C(C(=O)O)C1=O
2. O=C(O)CC1CCCCC1c1ccccc1 (stereo not given)
3. COc1cccc(-c2[nH]c(=S)ncc2C(=O)c2ccccc2)c1

Output:
1: 100% (inactive); 2: 91.9% (inactive); 3: 84.9% (inactive)

Record growth for all entries; do not skip any.
1. C#C[C@]1(O)CC[C@H]2[C@@H]3CC=C4c5nc(Nc6ccccc6[N+](=O)[O-])sc5CC[C@]4(C)[C@H]3CC[C@@]21C
2. C=C(C)[C@@H]1CC[C@]2(C(=O)OC)CC[C@]3(C)[C@H](CC[C@@H]4[C@@](C)(CCc5nn[nH]n5)[C@H](C(=C)C)CC[C@]43C)[C@@H]12

Output:
["-31.5% (active)", "-65% [100 µM] (active)"]

Batch request: growth for each of the following compounds.
1. CC1(C)C(=NO)C(C)(C)C1=NO
2. CCOC(=O)C(c1ccccc1)N1C(=O)c2ccccc2C1=O (stereo not given)
3. CCCCN(CC)CC(CC)Nc1cc(OC)cc2cccnc12 (stereo not given)
4. COc1ccc2c(c1)C(C)Cc1c(Cl)ncnc1N2C (stereo not given)
5. CN(C)c1ccc(-c2ccc(-c3ccc(C(=N)N)cc3)s2)cc1

Output:
1: 117% (inactive); 2: 97.9% (inactive); 3: 102% (inactive); 4: 28% (inactive); 5: 89.9% (inactive)

Each compound below has a reported value. Please supply its growth.
1. Cc1ccc2c(n1)C(=O)C(Cl)=C(Nc1ccc(N3CCN(C)CC3)cc1)C2=O
2. COc1cc(NCc2cn(-c3ccc(C(=O)O)cc3)nc2-c2ccc(C(=O)O)cc2)cc(OC)c1OC
3. CCCCCCNC(=O)Nc1ncnc2c1ncn2-c1ccccc1
4. C=C(C)[C@@H]1CC[C@]2(C(=O)N3CCN(C)CC3)CC[C@]3(C)[C@H](CC[C@@H]4[C@@]5(C)C/C(=C/c6ccncc6)[C@H](O)C(C)(C)[C@@H]5CC[C@]43C)[C@@H]12

Output:
["-24.5% (active)", "90.2% (inactive)", "94% (inactive)", "-72% [100 µM] (active)"]

---

Test system: IGROV1 ovarian
Assay: NCI-60 one-dose screen, 48 h (100 = growth as untreated, 0 = no growth, -100 = all killed)
Conditions: 10 µM unless noted
The panel holds about 83,000 compounds, 20% with a hit somewhere; the sample as a whole holds those more often. Activity calls are given as the source filed them. How the source made its calls: active means growth percent below 10; inactive means the rest.
PARAMETER: growth

Example entries begin here.
{"COMPOUND": "CCC(C)[C@H](NC(=O)NC(=O)NC(=O)CI)C(=O)OC (some centres undefined)", "growth": "80.7% (inactive)"}
{"COMPOUND": "CC(C)CCNCC(C)(C)O", "growth": "118% (inactive)"}
{"COMPOUND": "COc1ccc(C=C2c3ccccc3-c3ccccc32)cc1", "growth": "58.3% (inactive)"}
{"COMPOUND": "CC1(C)C(=O)/C(=C\\c2cccnc2)C[C@]2(C)[C@H]3CC[C@@H]4[C@H]5[C@H](C(=O)/C=C/c6cccnc6)CC[C@]5(C(=O)O)CC[C@@]4(C)[C@]3(C)CC[C@@H]12", "growth": "-34.3% [100 µM] (active)"}
{"COMPOUND": "COc1ccc(C(=O)CCC(=O)O)cc1", "growth": "96.8% (inactive)"}

For every listed record, write down its growth.
1. Cc1ccc(N)c(O)c1
2. COc1ccc(C(=O)/C=C/c2ccccn2)c(O)c1
3. C#C[C@]1(O)CC[C@H]2[C@@H]3CC=C4c5nc(Nc6ccccn6)sc5CC[C@]4(C)[C@H]3CC[C@@]21C
4. C[C@@H](NC(=O)[C@@H](CC(=O)N1CCC(N2CCCCC2)CC1)N1C(=O)[C@@H](N2C(=O)OC[C@@H]2c2ccccc2)[C@H]1/C=C/c1cccc(Cl)c1)c1ccccc1
5. CCN1CCN(CC(=O)Nc2nc3ccc(NCc4ccc(Cl)cc4)cc3s2)CC1
6. N#C/C(=C(/O)CCCO)c1nc2ccccc2c(=O)[nH]1

Output:
69.6% (inactive)
46.8% (inactive)
32.7% (inactive)
86% (inactive)
70.9% (inactive)
109% (inactive)

Each of the following entries comes with a recorded value; kindly state growth for each.
1. C=C(CN=[N+]=[N-])[C@@H]1CC[C@]2(C)[C@H](CC[C@@H]3[C@H]4[C@H]5OC(=O)[C@@]4(CCC5(C)C)CC[C@]32C)[C@@]1(C)CCC#N
2. CCOC(=O)COc1ccc2c(c1)O/C(=C\c1ccc(O)cc1)C2=O
3. FC(F)(F)c1ccc2c(c1)Sc1ccccc1N2
4. CC(C)(C)c1cc(C(=O)Nc2cc3ccccc3cc2C(=O)NCCN)cc(C(C)(C)C)c1
5. Nc1nc(Cl)c2ncn(Cc3cc4c(cc3I)OCO4)c2n1

Output:
1: 106% [100 µM] (inactive); 2: 106% (inactive); 3: 92.6% (inactive); 4: -55% (active); 5: 83.2% (inactive)

Numbers sourced from PubChem BioAssay (NCI).
